- test.protocol: Pharmacokinetic study of orally administered THAP in rats (LC-MS/MS of plasma, noncompartmental analysis)
- Assay type: in vivo, Sprague Dawley rats
- particulars: male, Sprague Dawley, plasma; rat, oral 500 mg/kg aqueous solution (Group 2), mean ± SD, n = 5

compound: CC(=O)c1c(O)cc(O)cc1O [THAP, 2′,4′,6′-trihydroxyacetophenone]
AUC(0-t): 150 µg·h/mL

====

- test.protocol: Pharmacokinetic study of orally administered THAP in rats (LC-MS/MS of plasma, noncompartmental analysis)
- Format: in vivo, Sprague Dawley rats
- particulars: male, Sprague Dawley, plasma; rat, oral 500 mg/kg aqueous solution (Group 2), mean ± SD, n = 5

compound: CC(=O)c1c(O)cc(O)cc1O [THAP, 2′,4′,6′-trihydroxyacetophenone]
unit.abbreviation: h
half-life: 8.3

====

- test.protocol: Pharmacokinetic study of orally administered THAP in rats (LC-MS/MS of plasma, noncompartmental analysis)
- Type: in vivo, Sprague Dawley rats
- particulars: male, Sprague Dawley; rat plasma sample of R06, 12 h after oral administration of THAP 500 mg/kg; read-out: measured plasma concentration of THAP

molecule: CC(=O)c1c(O)cc(O)cc1O [THAP, 2′,4′,6′-trihydroxyacetophenone]
concentration at 12 h (ng/mL): 374

====

- test.protocol: Pharmacokinetic study of orally administered THAP in rats (LC-MS/MS of plasma, noncompartmental analysis)
- Format: in vivo, Sprague Dawley rats
- particulars: male, Sprague Dawley, plasma; rat, oral 250 mg/kg aqueous solution (Group 1), mean ± SD, n = 5
measure: Tmax (min)

compound: CC(=O)c1c(O)cc(O)cc1O [THAP, 2′,4′,6′-trihydroxyacetophenone]
unit.abbreviation: min
quantitative.result: 30

====

- test.protocol: Pharmacokinetic study of oral THAP IR or SR tablets in dogs (LC-MS/MS of plasma, noncompartmental analysis)
- Assay type: in vivo
- particulars: male, beagle, dog, plasma, po, 500 mg, dog, oral 500 mg THAP sustained-release tablet (Group 2), mean ± SD, n = 5

compound: CC(=O)c1c(O)cc(O)cc1O [THAP, 2′,4′,6′-trihydroxyacetophenone]
half-life [h]: 6.4

====

- test.protocol: Pharmacokinetic study of oral THAP IR or SR tablets in dogs (LC-MS/MS of plasma, noncompartmental analysis)
- Format: in vivo
- particulars: male, beagle, dog, plasma, po, 500 mg, dog, oral 500 mg THAP immediate-release tablet (Group 1), mean ± SD, n = 5

compound: CC(=O)c1c(O)cc(O)cc1O [THAP, 2′,4′,6′-trihydroxyacetophenone]
unit.abbreviation: h
Tmax: 1

====

- test.protocol: Pharmacokinetic study of oral THAP IR or SR tablets in dogs (LC-MS/MS of plasma, noncompartmental analysis)
- Type: in vivo
- particulars: male, beagle, dog, plasma, po, 500 mg, dog, oral 500 mg THAP immediate-release tablet (Group 1), mean ± SD, n = 5
- Protocol: Healthy Sprague Dawley rats (n = 15, mean ± SD weight 261.4 ± 6.8 g) and beagle dogs (n = 10, mean ± SD weight 9.85 ± 0.60 kg) were purchased from Orient Bio Inc. (Seongnam, Korea). […] Plasma samples were stored in a deep freezer at −70 °C and thawed at room temperature. […] After being vortexed for 10 min and centrifuged at 20,800× g at 4 °C for 10 min, a 2 μL aliquot was injected into the LC-MS/MS system for quantitation. […]
measure: half-life (min)

molecule: CC(=O)c1c(O)cc(O)cc1O [THAP, 2′,4′,6′-trihydroxyacetophenone]
measure: half-life
quantitative.result: 366

====

- test.protocol: Pharmacokinetic study of oral THAP IR or SR tablets in dogs (LC-MS/MS of plasma, noncompartmental analysis)
- Format: in vivo
- particulars: male, beagle, dog, plasma, po, 500 mg, dog, oral 500 mg THAP immediate-release tablet (Group 1), mean ± SD, n = 5
measure: AUC(0-t) (ng·h/mL)

molecule: CC(=O)c1c(O)cc(O)cc1O [THAP, 2′,4′,6′-trihydroxyacetophenone]
measure: AUC(0-t)
quantitative.result: 89900

====

- test.protocol: Pharmacokinetic study of orally administered THAP in rats (LC-MS/MS of plasma, noncompartmental analysis)
- Type: in vivo, Sprague Dawley rats
- particulars: male, Sprague Dawley, plasma; rat, oral 500 mg/kg aqueous solution (Group 2), mean ± SD, n = 5
- Description: Healthy Sprague Dawley rats (n = 15, mean ± SD weight 261.4 ± 6.8 g) and beagle dogs (n = 10, mean ± SD weight 9.85 ± 0.60 kg) were purchased from Orient Bio Inc. (Seongnam, Korea). […] Plasma samples were stored in a deep freezer at −70 °C and thawed at room temperature. […] After being vortexed for 10 min and centrifuged at 20,800× g at 4 °C for 10 min, a 2 μL aliquot was injected into the LC-MS/MS system for quantitation. […]

molecule: CC(=O)c1c(O)cc(O)cc1O [THAP, 2′,4′,6′-trihydroxyacetophenone]
unit.abbreviation: µg/mL
Cmax: 81.3

====

- test.protocol: Pharmacokinetic study of orally administered THAP in rats (LC-MS/MS of plasma, noncompartmental analysis)
- Assay type: in vivo, Sprague Dawley rats
- particulars: male, Sprague Dawley, plasma; rat, oral 250 mg/kg aqueous solution (Group 1), mean ± SD, n = 5
measure: half-life

compound: CC(=O)c1c(O)cc(O)cc1O [THAP, 2′,4′,6′-trihydroxyacetophenone]
result: 11.3 h

====

- test.protocol: Pharmacokinetic study of orally administered THAP in rats (LC-MS/MS of plasma, noncompartmental analysis)
- Assay type: in vivo, Sprague Dawley rats
- particulars: male, Sprague Dawley, plasma; rat, oral 250 mg/kg aqueous solution (Group 1), mean ± SD, n = 5

compound: CC(=O)c1c(O)cc(O)cc1O [THAP, 2′,4′,6′-trihydroxyacetophenone]
Cmax / µg/mL: 64.2

====

- test.protocol: Pharmacokinetic study of orally administered THAP in rats (LC-MS/MS of plasma, noncompartmental analysis)
- Assay type: in vivo, Sprague Dawley rats
- particulars: male, Sprague Dawley, plasma; rat, oral 750 mg/kg aqueous solution (Group 3), mean ± SD, n = 5
measure: half-life

compound: CC(=O)c1c(O)cc(O)cc1O [THAP, 2′,4′,6′-trihydroxyacetophenone]
result: 8 h

====

- test.protocol: Pharmacokinetic study of orally administered THAP in rats (LC-MS/MS of plasma, noncompartmental analysis)
- Type: in vivo, Sprague Dawley rats
- particulars: male, Sprague Dawley, plasma; rat, oral 750 mg/kg aqueous solution (Group 3), mean ± SD, n = 5

molecule: CC(=O)c1c(O)cc(O)cc1O [THAP, 2′,4′,6′-trihydroxyacetophenone]
AUC(0-t): 302 µg·h/mL

====

- test.protocol: Pharmacokinetic study of oral THAP IR or SR tablets in dogs (LC-MS/MS of plasma, noncompartmental analysis)
- Type: in vivo
- particulars: male, beagle, dog, plasma, po, 500 mg, dog, oral 500 mg THAP immediate-release tablet (Group 1), mean ± SD, n = 5

compound: CC(=O)c1c(O)cc(O)cc1O [THAP, 2′,4′,6′-trihydroxyacetophenone]
Cmax: 24500 ng/mL

====

- test.protocol: Pharmacokinetic study of oral THAP IR or SR tablets in dogs (LC-MS/MS of plasma, noncompartmental analysis)
- Type: in vivo
- particulars: male, beagle, dog, plasma, po, 500 mg, dog, oral 500 mg THAP sustained-release tablet (Group 2), mean ± SD, n = 5

compound: CC(=O)c1c(O)cc(O)cc1O [THAP, 2′,4′,6′-trihydroxyacetophenone]
AUC(0-t) (µg·h/mL): 130

====

- test.protocol: Pharmacokinetic study of oral THAP IR or SR tablets in dogs (LC-MS/MS of plasma, noncompartmental analysis)
- Assay type: in vivo
- particulars: male, beagle, dog, plasma, po, 500 mg, dog, oral 500 mg THAP sustained-release tablet (Group 2), mean ± SD, n = 5
- Protocol: Healthy Sprague Dawley rats (n = 15, mean ± SD weight 261.4 ± 6.8 g) and beagle dogs (n = 10, mean ± SD weight 9.85 ± 0.60 kg) were purchased from Orient Bio Inc. (Seongnam, Korea). […] Plasma samples were stored in a deep freezer at −70 °C and thawed at room temperature. […] After being vortexed for 10 min and centrifuged at 20,800× g at 4 °C for 10 min, a 2 μL aliquot was injected into the LC-MS/MS system for quantitation. […]

compound: CC(=O)c1c(O)cc(O)cc1O [THAP, 2′,4′,6′-trihydroxyacetophenone]
unit.abbreviation: h
Tmax: 6
